Molecular target: VIM-2 (Veronese metallo-β-lactamase-2) (Escherichia coli, UniProt Q5U7L7)
Assay: Enzyme inhibition assay, VIM-2
Format: biochemical
Conditions: read-out: pIC50 VIM-2 (converted)
IC50 overview

MOLECULE | ENDPOINT UNIT | IC50
Cc1cccc2c(-c3ccc(Cl)c(C(F)(F)F)c3)c(C(=O)O)[nH]c12 [Example 43] | nM | 158
O=C(O)c1[nH]c2c(CCOc3ccccc3)cccc2c1-c1ccc(F)cc1 [Example 62] | nM | 158
CC(C)c1cccc2c(-c3ccc4[nH]ncc4c3)c(C(=O)O)[nH]c12 [Example 75] | nM | 10
Cc1cccc2c(-c3cccc(S(C)(=O)=O)c3)c(C(=O)O)[nH]c12 [Example 16] | nM | 794
Cc1ccc2c(-c3ccc(S(N)(=O)=O)cc3)c(C(=O)O)[nH]c2c1 [Example 47] | nM | 7940
Cc1cccc2c(-c3ccc(Cl)cc3)c(C(=O)O)[nH]c12 [Example 42] | nM | 251
Cc1cccc2c(-c3ccc(Cn4cccn4)cc3)c(C(=O)O)[nH]c12 [Example 34] | nM | 200
O=C(O)c1[nH]c2c(Cl)cccc2c1-c1ccc(F)cc1 [Example 54] | nM | 794
Cc1cccc2c(-c3ccc(C#N)cc3)c(C(=O)O)[nH]c12 [Example 7] | nM | 200
Cc1c(Oc2ccccc2)ccc2c(-c3ccc(C(=O)N(C)C)cc3)c(C(=O)O)[nH]c12 [Example 86] | nM | 575
Cc1cccc2c(-c3ccncc3)c(C(=O)O)[nH]c12 [Example 4] | nM | 631
O=C(O)c1[nH]c2c(CCOc3ccccc3)cccc2c1-c1ccc(Cl)cc1 [Example 84] | nM | 20
CC(C)c1cccc2c(-c3ccc(F)cc3)c(C(=O)O)[nH]c12 [Example 53] | nM | 31.6
Cc1ccc2c(-c3ccc(C(N)=O)cc3)c(C(=O)O)[nH]c2c1 [Example 48] | nM | 3980
Cc1cccc2c(-c3cccc(Br)c3)c(C(=O)O)[nH]c12 [Example 18] | nM | 50.1
Cc1c(Oc2ccccc2)ccc2c(-c3ccc(Cl)cc3)c(C(=O)O)[nH]c12 [Example 85] | nM | 158
Cc1cccc2c(-c3ccc4cn[nH]c4c3)c(C(=O)O)[nH]c12 [Example 32] | nM | 79.4
CC(C)c1cccc2c(-c3ccc(CN4CCOCC4)cc3)c(C(=O)O)[nH]c12 [Example 94] | nM | 105

Hey, just so you know, these numbers are from patent US11439622B2.
